Please provide measured pIC50 for the entries that follow.
- TEST_TARGET: Beta-3 Adrenergic Receptor (Homo sapiens (Human))
- ASSAY_REMARKS: HTRF cAMP antagonist assay (IC50 determination)
- STATED_CONDITIONS: CHO-K1 cells stably expressing recombinant receptor; antagonism of isoproterenol at EC90; cAMP readout
Entry type: numeric. Quantity: pIC50, the -log10 of concentration in molar units.

Input line: Would you mind telling me what pIC50 value was observed for Cc1cc(S(=O)(=O)N2CCC3(CC2)C[C@H](NC[C@H](O)COc2cccc(S(=O)(=O)C4(CO)CC4)c2)CO3)ccc1Br ?
Output line: 7.46

Input line: Item CS(=O)(=O)c1cccc(OC[C@@H](O)CNC2COC3(CCN(S(=O)(=O)c4ccccc4)CC3)C2)c1 (stereo partly drawn) has what recorded pIC50?
Output line: 7.09

Input line: Please give the measured pIC50 for this molecule: COCCCS(=O)(=O)c1cccc(OC[C@@H](O)CN[C@H]2COC3(CCN(S(=O)(=O)c4cnc5ccccc5c4)CC3)C2)c1
Output line: 7.01

====

- TEST_TARGET: Beta-3 Adrenergic Receptor (Homo sapiens (Human), UniProt P13945)
- Sequence (P13945 whole entry, species assumed): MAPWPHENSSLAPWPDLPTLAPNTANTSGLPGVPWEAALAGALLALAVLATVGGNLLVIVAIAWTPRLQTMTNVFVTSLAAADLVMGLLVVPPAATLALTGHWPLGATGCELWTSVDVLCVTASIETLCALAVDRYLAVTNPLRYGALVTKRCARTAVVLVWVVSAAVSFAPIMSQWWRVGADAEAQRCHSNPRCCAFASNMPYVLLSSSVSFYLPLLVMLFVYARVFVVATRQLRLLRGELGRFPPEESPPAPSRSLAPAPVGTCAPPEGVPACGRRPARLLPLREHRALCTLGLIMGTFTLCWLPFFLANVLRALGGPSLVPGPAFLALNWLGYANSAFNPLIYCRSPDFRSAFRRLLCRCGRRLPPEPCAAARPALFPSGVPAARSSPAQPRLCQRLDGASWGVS
- ASSAY_REMARKS: HTRF cAMP antagonist assay (IC50 determination)
- STATED_CONDITIONS: CHO-K1 cells stably expressing recombinant receptor; antagonism of isoproterenol at EC90; cAMP readout
pIC50: −log10 of the molar value.
Would you mind labelling by pIC50? At or over 7 is criterion met, under is criterion not met.

Input line: Textbook exercise: given the entry Cc1cc(-c2cccc(S(=O)(=O)N3CCC4(CC3)CC(NC[C@H](O)COc3cccc(S(C)(=O)=O)c3)CO4)c2)ccn1 (stereo partly drawn) , state whether its pIC50 is greater than or equal to 7.
Output line: criterion met

Input line: Is pIC50 at least 7? Consider CS(=O)(=O)c1cccc(OC[C@@H](O)CN[C@H]2COC3(CCN(S(=O)(=O)c4c[nH]c5ccccc45)CC3)C2)c1
Output line: criterion met

Input line: Assess whether reported pIC50 for CCn1cc(S(=O)(=O)N2CCC3(CC2)C[C@@H](NC[C@H](O)COc2cccc(S(C)(=O)=O)c2)CO3)c(=O)c2cccc(F)c21 sits at 7 or higher.
Output line: criterion met

Input line: Reported pIC50 at or above 7? Cc1c(S(=O)(=O)N2CCC3(CC2)C[C@@H](NC[C@H](O)COc2cccc(S(=O)(=O)C4(CO)CC4)c2)CO3)cnc2c1N(C)CCO2
Output line: criterion not met

Input line: Determine whether measured pIC50 meets or exceeds 7 for NCc1ccc(-c2ccc(S(=O)(=O)N3CCC4(CC3)C[C@@H](NC[C@H](O)COc3cccc(S(=O)(=O)CCO)c3)CO4)cc2)cc1
Output line: criterion not met

====

- TEST_TARGET: UniProtKB P13945
- ASSAY_REMARKS: HTRF cAMP antagonist assay (IC50 determination)
- STATED_CONDITIONS: CHO-K1 cells stably expressing recombinant receptor; antagonism of isoproterenol at EC90; cAMP readout
Consider the following compounds; for each one, report its pIC50.
The quantity pIC50 is defined as the negative base-10 logarithm of the molar concentration.

Input line: Look up pIC50 with UniProtKB P13945 for this compound: CCCNCc1ccc(-c2cccc(S(=O)(=O)N3CCC4(CC3)C[C@H](NC[C@H](O)COc3cccc(S(=O)(=O)C5(CO)CC5)c3)CO4)c2)cc1
Output line: 7.56

Input line: Requested read-out pIC50, target or system UniProtKB P13945, entry CCn1cc(S(=O)(=O)N2CCC3(CC2)C[C@H](NC[C@H](O)COc2cccc(S(C)(=O)=O)c2)CO3)c(=O)c2ccccc21
Output line: 7.49

Input line: Form: Entry = CS(=O)(=O)c1cccc(OC[C@@H](O)CNC2COC3(CCN(S(=O)(=O)c4cccc(-c5ccc(S(N)(=O)=O)cc5)c4)CC3)C2)c1 (stereo partly drawn) | System = UniProtKB P13945 | pIC50 = ____
Output line: 7.73

Input line: Provide the documented pIC50 with UniProtKB P13945 as the system for CCC(C)(C)NCc1ccc(-c2cccc(S(=O)(=O)N3CCC4(CC3)C[C@@H](NC[C@H](O)COc3cccc(S(=O)(=O)C5(CO)CC5)c3)CO4)c2)cc1
Output line: 6.12

Input line: // map CS(=O)(=O)c1cccc(OC[C@@H](O)CNC2COC3(CCN(C(=O)c4ccc5[nH]ccc5c4)CC3)C2)c1 (stereo partly drawn) to recorded pIC50 (system: UniProtKB P13945)
Output line: 6.09

Input line: # value lookup — system UniProtKB P13945, readout pIC50, item CCOc1ccc(-c2ccc(CCN)cc2)cc1S(=O)(=O)N1CCC2(CC1)C[C@H](NC[C@H](O)COc1cccc(S(=O)(=O)C3(CO)CC3)c1)CO2
Output line: 7.44

====

- TEST_TARGET: Beta-3 Adrenergic Receptor (Homo sapiens (Human), UniProt P13945)
- ASSAY_REMARKS: HTRF cAMP antagonist assay (IC50 determination)
- STATED_CONDITIONS: CHO-K1 cells stably expressing recombinant receptor; antagonism of isoproterenol at EC90; cAMP readout
pIC50: −log10 of the molar value.
Lab note: compare pIC50 against 7. Equal or greater, write 1.0. Smaller, write 0.0.

Input line: Decide: is the reported value of pIC50 for COCCNCc1ccc(-c2cccc(S(=O)(=O)N3CCC4(CC3)C[C@@H](NC[C@H](O)COc3cccc(S(=O)(=O)C5(CO)CC5)c3)CO4)c2)cc1 [Compound 267] equal to or greater than 7?
Output line: 0.0

Input line: Does pIC50 meet or surpass 7 for CN1CCOc2ncc(S(=O)(=O)N3CCC4(CC3)C[C@@H](NC[C@H](O)COc3cccc(CS(C)(=O)=O)c3)CO4)cc21 [Compound 104] ?
Output line: 1.0

Input line: Would you say CC(=O)NCCc1ccc(-c2cccc(S(=O)(=O)N3CCC4(CC3)C[C@@H](NC[C@H](O)COc3cccc(S(=O)(=O)C5(CO)CC5)c3)CO4)c2)cc1 [Compound 191] shows pIC50 at minimum 7?
Output line: 0.0

Input line: Could you verify whether the entry CS(=O)(=O)c1cccc(OC[C@@H](O)CNC2COC3(CCN(S(=O)(=O)c4cccc(-c5ccncc5)c4)CC3)C2)c1 (stereo partly drawn) [Compound 43] shows pIC50 of no less than 7?
Output line: 1.0

====

- TEST_TARGET: Beta-3 Adrenergic Receptor (Homo sapiens (Human), UniProt P13945)
- ASSAY_REMARKS: HTRF cAMP antagonist assay (IC50 determination)
- STATED_CONDITIONS: CHO-K1 cells stably expressing recombinant receptor; antagonism of isoproterenol at EC90; cAMP readout
Provide the recorded pIC50 for the entries that follow.
Hey, just a heads up that pIC50 is the negative log base 10 of the concentration in molar.

Input line: Which measured pIC50 value corresponds to CCOc1ccc(-c2ccc(C3(N)CC3)cc2)cc1S(=O)(=O)N1CCC2(CC1)C[C@@H](NC[C@H](O)COc1cccc(S(=O)(=O)C3(CO)CC3)c1)CO2 ?
Output line: 7.30

Input line: Please report the recorded pIC50 for COc1ccc(S(=O)(=O)N2CCC3(CC2)C[C@@H](NC[C@H](O)COc2cccc(S(=O)(=O)C4(CO)CC4)c2)CO3)cc1-c1ccc(C2(N)CC2)cc1 .
Output line: 7.60

Input line: Give its pIC50 value. Item: CS(=O)(=O)c1cccc(OC[C@@H](O)CN[C@H]2COC3(CCN(S(=O)(=O)c4cnc5cc[nH]c5c4)CC3)C2)c1
Output line: 7.95

Input line: pIC50 lookup needed for Cc1noc(C)c1S(=O)(=O)N1CCC2(CC1)CC(NC[C@H](O)COc1cccc(S(C)(=O)=O)c1)CO2 (stereo partly drawn) , thanks.
Output line: 7.21

Input line: Can you look up the measured pIC50 of O=S(=O)(CCO)c1cccc(OC[C@@H](O)CN[C@H]2COC3(CCN(S(=O)(=O)c4cnc5ccccc5c4)CC3)C2)c1 for me?
Output line: 7.60

Input line: Endpoint output: pIC50 of CCOc1ccc(-c2ccc(CN)cc2)cc1S(=O)(=O)N1CCC2(CC1)C[C@@H](NC[C@H](O)COc1cccc(S(=O)(=O)C(F)(F)CO)c1)CO2 . Value?
Output line: 7.67

Input line: Field request: pIC50 | item: Cc1cccc2c(O)c(S(=O)(=O)N3CCC4(CC3)C[C@@H](NC[C@H](O)COc3cccc(S(=O)(=O)C5CC5)c3)CO4)cnc12
Output line: 7.54

Input line: Which pIC50 value is on record for O=S(=O)(c1cnc2c(c1)CCCO2)N1CCC2(CC1)C[C@@H](NC[C@H](O)COc1cccc(S(=O)(=O)C3(CO)CC3)c1)CO2 ?
Output line: 6.97

Input line: Report pIC50 for C[C@H]1CN(C)c2cc(S(=O)(=O)N3CCC4(CC3)C[C@@H](NC[C@H](O)COc3cccc(S(=O)(=O)C5CC5)c3)CO4)cnc2O1 please.
Output line: 7.42

Input line: Name the recorded pIC50 for O=S(=O)(c1cccc(OC[C@@H](O)CN[C@H]2COC3(CCN(S(=O)(=O)c4cnc5ccccc5c4)CC3)C2)c1)C1CCC1 .
Output line: 7.69

Input line: # query: pIC50 of entry CS(=O)(=O)c1cccc(OC[C@@H](O)CN[C@@H]2COC3(CCN(S(=O)(=O)c4cnc5ccccc5c4)CC3)C2)c1
Output line: 7.75

Input line: Report pIC50 for CS(=O)(=O)c1cccc(OC[C@@H](O)CNC2COC3(CCN(S(=O)(=O)c4cccc(-c5ccc(N)nc5)c4)CC3)C2)c1 (stereo partly drawn) please.
Output line: 7.61
